Collected from the literature: pKi of various compounds toward Melatonin receptor type 1A (Homo sapiens).
Numbers only, as −log10 of the molar value.

{"columns": ["COMPOUND", "ASSAY SYSTEM", "TEST VALUE"],
 "data": [
  ["CCC(=O)NC1Cc2ccccc2N(Cc2ccccc2)C1 (racemic)", "Melatonin receptor type 1A (Homo sapiens)", 6.05],
  ["CNC(=O)CCc1c(-c2ccccc2)nc2ccc(OC)cn12", "Melatonin receptor type 1A (Homo sapiens)", 5.96]
]}

For every listed record, write down its pKi.
1. CC(=O)NCC=C(c1ccccc1)c1ccccc1
2. CC(=O)NCCc1cccc2ccc(OCCCCOc3ccc4cccc(CCNC(=O)C5CC5)c4c3)cc12
3. CC(C)C1=C(CCNC(=O)C2CC2)c2c(ccc3c2CCO3)C1

[6.29, 8.97, 9.96]
